target: GPR17 (Homo sapiens); assay: Calcium mobilization functional assay (GPR17 Ca2+ assay); type: cell-based; parameters: host or cells: Flp-In T-REx CHO; details: CHO hGPR17 cells, inhibition of 50 nM MDL29,951, Calcium 5 dye, FLIPR; read-out: Ca2+ assay pIC50 (converted)
So I've got a bunch of compounds here, and I need their IC50 values.

In: Consider the compound shown here: N#Cc1ccc(NS(=O)(=O)c2c[nH]c3nc(Br)ccc23)c(F)c1 What is its recorded IC50?
Out: < 3.16 nM

In: Quick one: COc1cc(CC#N)cnc1NS(=O)(=O)c1c[nH]c2cc(Cl)ccc12
Out: < 3.16 nM

In: Record: O=S(=O)(Nc1ccc(I)cc1F)c1c[nH]c2cc3c(cc12)OCO3
Out: > 31.6 nM

In: Please do the same for O=S(=O)(Nc1ccc(Br)cc1)c1c[nH]c2cc(Cl)ccc12 as well.
Out: > 31.6 nM

In: Now try O=S(=O)(Nc1cc(F)ccc1Br)c1c[nH]c2cc(Cl)ccc12 .
Out: > 31.6 nM

In: Next entry: N#Cc1ccc(NS(=O)(=O)c2c[nH]c3cc(F)c(F)cc23)cc1
Out: > 31.6 nM

In: // next record O=S(=O)(Nc1ccc(S(F)(F)(F)(F)F)cc1)c1c[nH]c2cc(Cl)ccc12
Out: > 31.6 nM

In: What about this compound? O=S(=O)(Nc1cc(F)c(Br)cc1F)c1coc2cc(Cl)ccc12
Out: 3.16 to 31.6 nM

In: Another compound to look at: CS(=O)(=O)c1ccc2c(S(=O)(=O)Nc3cc(F)ccc3F)c[nH]c2c1
Out: > 31.6 nM

In: And what about the compound COc1nc(NS(=O)(=O)c2c[nH]c3c(F)c(Cl)ccc23)c(F)cc1CC#N ?
Out: < 3.16 nM

In: Moving on to the next compound: Cc1ccc2c(S(=O)(=O)Nc3cc(F)c(C#N)cc3F)c[nH]c2c1
Out: 3.16 to 31.6 nM

In: Try this compound next: O=S(=O)(Nc1cc(F)c(C(F)(F)F)cc1F)c1c[nH]c2cc(Cl)ccc12
Out: < 3.16 nM

In: Try COc1ccc2c(S(=O)(=O)Nc3cc(F)c(Br)cc3F)c[nH]c2n1 next.
Out: 3.16 to 31.6 nM

In: Also, Cc1cc(F)c(NS(=O)(=O)c2c[nH]c3nc(Cl)ccc23)cc1F please.
Out: < 3.16 nM

In: Again, but for COc1nc(NS(=O)(=O)c2c[nH]c3cc(Br)ccc23)c(F)cc1CC#N
Out: < 3.16 nM

In: Please do the same for O=S(=O)(Nc1ccc(Cl)cc1F)c1c[nH]c2nc(Cl)ccc12 as well.
Out: 3.16 to 31.6 nM

In: How about this compound: O=S(=O)(Nc1cc(F)c(Cl)cc1F)c1c[nH]c2cc3c(cc12)OCO3
Out: < 3.16 nM

In: Would you kindly repeat that for N#Cc1ccc(NS(=O)(=O)c2c[nH]c3ccc(Cl)cc23)cc1 ?
Out: > 31.6 nM

----------
biological target: GPR17 (Homo sapiens, UniProt Q13304); experiment: Calcium mobilization functional assay (GPR17 Ca2+ assay); format: cell-based; set-up: host or cells: Flp-In T-REx CHO; details: CHO hGPR17 cells, inhibition of 50 nM MDL29,951, Calcium 5 dye, FLIPR; read-out: Ca2+ assay pIC50 (converted)
Sequence (Q13304 whole entry): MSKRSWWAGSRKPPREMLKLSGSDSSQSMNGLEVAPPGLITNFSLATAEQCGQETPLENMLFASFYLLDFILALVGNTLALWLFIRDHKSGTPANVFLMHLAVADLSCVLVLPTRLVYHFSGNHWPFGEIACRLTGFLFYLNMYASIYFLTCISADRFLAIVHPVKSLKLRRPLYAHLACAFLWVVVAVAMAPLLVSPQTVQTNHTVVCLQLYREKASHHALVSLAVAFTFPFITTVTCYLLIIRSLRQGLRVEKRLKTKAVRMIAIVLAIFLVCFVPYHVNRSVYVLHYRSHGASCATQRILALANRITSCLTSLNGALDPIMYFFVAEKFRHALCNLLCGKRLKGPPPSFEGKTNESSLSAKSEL
Kindly supply the reported IC50 values for the records listed here.

In: Which measured IC50 value corresponds to O=C1OCc2ccc(NS(=O)(=O)c3c[nH]c4cc(Cl)ccc34)cc21 ?
Out: > 31.6 nM

In: Let us now turn to O=S(=O)(Nc1ccc(C(F)(F)F)cn1)c1c[nH]c2cc(Cl)ccc12
Out: > 31.6 nM

In: Next compound up: N#Cc1cc(F)c(NS(=O)(=O)c2c[nH]c3nc(Cl)ccc23)cc1F
Out: 3.16 to 31.6 nM

In: Would you kindly repeat that for COc1cc(NS(=O)(=O)c2c[nH]c3cc(Cl)ccc23)ncc1Cl ?
Out: > 31.6 nM

In: Repeat for the following compound: COc1cc(NS(=O)(=O)c2c[nH]c3cc(Cl)ccc23)ccc1C#N
Out: 3.16 to 31.6 nM
